- target: binding of His-XIAP(BIR2)-avi fusion protein to GST-RIPK2 fusion protein (RIPK2/XIAP) (Homo sapiens)
- Construct: made in house; host or cells: baculovirus infected Sf9 cells
- Sequence (O43353 1-310 limits assumed): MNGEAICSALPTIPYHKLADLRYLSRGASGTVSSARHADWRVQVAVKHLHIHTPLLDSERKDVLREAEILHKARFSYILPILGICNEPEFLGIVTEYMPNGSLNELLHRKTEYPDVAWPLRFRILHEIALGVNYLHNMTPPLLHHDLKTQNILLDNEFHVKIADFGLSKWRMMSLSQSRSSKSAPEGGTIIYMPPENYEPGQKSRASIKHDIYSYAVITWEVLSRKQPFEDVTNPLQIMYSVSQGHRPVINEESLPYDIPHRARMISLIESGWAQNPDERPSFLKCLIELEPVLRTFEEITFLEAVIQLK
- test.method.notes: RIPK2-XIAP binding competition PPI assay (TR-FRET)
- conditions.used: RIPK2/XIAP binding competition PPI assay; read-out: PPI IC50 bin
Give measured IC50 for each item. Keep answers brief.

Query C[C@@H](CO)COc1cn2ncc(-c3cc(Cl)c(N)nc3F)c2cc1S(=O)(=O)C(C)(C)C [Example 199] yields IC50 of < 1 nM

IC50 recorded for this molecule, COCC(C)(C)S(=O)(=O)c1cn2c(-c3cc(F)c(N)nc3F)cnc2cc1OC [Example 167] , is > 20 nM

// recorded IC50 for CC(C)(C)S(=O)(=O)c1cn2c(-c3ccc4nccn4c3)cnc2cc1OCCO [Example 208] : > 20 nM

Memo: CC(C)(C)S(=O)(=O)c1cn2c(-c3cc(Cl)c(N)nc3F)cnc2cc1OCC(F)(F)CN [Example 243] , reported IC50: 1 to 2.5 nM

Query COc1cc2ncc(-c3ccc4oc(N)nc4c3)n2cc1S(=O)(=O)C(C)(C)C [Example 104] yields IC50 of > 20 nM

Given item Cc1c[nH]c2ncc(-c3cnc4cc(OCCO)c(S(=O)(=O)C(C)(C)C)cn34)cc12 [Example 218] , the value recorded as its IC50 is 2.5 to 20 nM

Data point: COc1c(F)cc(-c2cnc3cc(OC[C@H](C)O)c(S(=O)(=O)C(C)(C)C)cn23)cc1NS(C)(=O)=O [Example 269] ; IC50 = < 1 nM

What the record says about COc1c(F)cc(-c2cnc3cc(OCCO)c(S(=O)(=O)C(C)(C)C)cn23)cc1NS(C)(=O)=O [Example 223] : IC50 is < 1 nM

Lookup result for COc1cc2ncc(-c3cc(F)c(OC)c(NS(=O)(=O)c4cnc(C)s4)c3)n2cc1S(=O)(=O)C(C)(C)C [Example 287] ; measured IC50: < 1 nM

For this molecule ( COc1cc2ncc(-c3cc(F)c(OC)c(NS(=O)(=O)CC(F)(F)F)c3)n2cc1S(=O)(=O)C(C)(C)C [Example 143] ), measured IC50 is 1 to 2.5 nM

Reported IC50 of COc1cc2ncc(-c3ccc4sc(N)nc4c3)n2cc1S(=O)(=O)C(C)(C)C [Example 105] : > 20 nM

// COc1cc2ncc(-c3ccc4nn(C)cc4c3)n2cc1S(=O)(=O)C(C)(C)C [Example 111] : IC50 value = > 20 nM

Sample COc1cc2ncc(-c3cc4cc[nH]c4nc3F)n2cc1S(=O)(=O)C(C)(C)C [Example 216] ; IC50 observed: < 1 nM

What the record says about COc1cn2ncc(-c3cc(F)c(OC)c(NS(=O)(=O)c4cnn(C)c4)c3)c2nc1OC [Example 211] : IC50 is 2.5 to 20 nM

Value of IC50 reported for the molecule COc1cc2ncc(-c3ccc4c(N)n[nH]c4c3)n2cc1S(=O)(=O)C(C)(C)C [Example 103] is > 20 nM

Input CC(C)(C)S(=O)(=O)c1cn2c(-c3cc(Br)c(N)nc3F)cnc2cc1OCCO [Example 186] . Output IC50: 2.5 to 20 nM

Recorded IC50 (molecule COc1c(F)cc(-c2cnc3cc(OC[C@@H](C)O)c(S(=O)(=O)C(C)(C)C)cn23)cc1NS(=O)(=O)c1cnn(C)c1 [Example 253] ): < 1 nM

COc1cc2ncc(-c3ccc4c(C)nn(C)c4c3)n2cc1S(=O)(=O)C(C)(C)C [Example 108] yielded IC50 of > 20 nM

Memo: COc1cc2ncc(-c3cc(F)c(OC)c4[nH]c(C)nc34)n2cc1S(=O)(=O)C(C)(C)C [Example 118] , reported IC50: < 1 nM

Measured IC50, COc1cc2ncc(-c3cc4cn[nH]c4cn3)n2cc1S(=O)(=O)C(C)(C)C [Example 11] : > 20 nM

# IC50 of COc1cc2ncc(-c3cnc4c(c3)OCCN4C)n2cc1S(=O)(=O)C(C)(C)C [Example 123] = > 20 nM

GET /value?item= COc1cc2ncc(-c3cnc4cc(N)ccc4c3)n2cc1S(=O)(=O)C(C)(C)C [Example 92] &field=IC50 returns > 20 nM

Briefly, IC50 measured for Cn1cc(COc2cc3ncc(-c4cc(F)c(N)nc4F)n3cc2S(=O)(=O)C(C)(C)C)cn1 [Example 30] : 2.5 to 20 nM

Per the records, this molecule ( CC(C)(C)S(=O)(=O)c1cn2c(-c3cc4cc[nH]c4nc3F)cnc2cc1OCCO [Example 52] ) has IC50 equal to < 1 nM

// COc1cc2ncc(-c3ccc(N)nc3F)n2cc1S(=O)(=O)C(C)(C)CO [Example 58] : IC50 value = > 20 nM

# IC50 of CC(C)(C)S(=O)(=O)c1cn2c(-c3cnc4cn[nH]c4c3)cnc2cc1OCCO [Example 210] = > 20 nM

The recorded IC50 for entry CC(C)(C)S(=O)(=O)c1cn2c(-c3cc(F)c(N)nc3F)cnc2cc1OCC1(O)CC1 [Example 177] equals 2.5 to 20 nM

The value of IC50 measured for the molecule COc1cc2ncc(-c3cc(F)c(N)nc3F)n2cc1S(=O)(=O)N1CCOCC1 [Example 163] turned out to be > 20 nM

The reported IC50 of the molecule Nc1cc(-c2cnn3ccc(C(F)(F)F)cc23)cc(F)n1 [Example 3] was > 20 nM

Item: CC(C)(C)S(=O)(=O)c1cc2c(-c3cc(Cl)c(N)nc3F)cnn2cc1OCCOP(=O)(O)O [Example 187] | IC50: 2.5 to 20 nM

Memo: COc1cc2ncc(-c3cc(F)c(N)nc3F)n2cc1S(=O)(=O)C1(C)CCN(C(=O)OC(C)(C)C)CC1 [Example 70] , reported IC50: > 20 nM

Quick note, IC50 for COc1cc2ncc(-c3cc(F)c(OC)c4nn(CCO)cc34)n2cc1S(=O)(=O)C(C)(C)C [Example 122] landed at > 20 nM
